Please provide measured melting point for the entries that follow.

Query :: Return reported melting point. Input compound: CC(C)(CO)C(O)C(=O)NCCC(=O)Nc1ccc2c(C(F)(F)F)cc(=O)oc2c1 (centres unmarked)
Result :: 92.4 to 93.6 °C

Query :: Input COc1cc(C(=O)N2CCC3(CCOCC3)C2)ccc1NCc1cccnc1 , output reported melting point.
Result :: 128.2 to 129.6 °C

Query :: Read the entry COc1cc(C(=O)N2CC3(CCOCC3)C2)ccc1NCc1cccnc1 and write its reported melting point.
Result :: 136.4 to 136.9 °C

Query :: Supply recorded melting point for O=C(c1ccc(NCc2cnccn2)cc1)N1CCC2(CCOCC2)C1 here.
Result :: 173.4 to 173.8 °C

Query :: Write down melting point measured for item O=C(c1ccc(NCc2cccnc2)cn1)N1CC2(CCOCC2)C1
Result :: 202 to 202.3 °C
